# ASSAY NAME: protein stability index of a GFP-peptide fusion (GPS, HEK-293T) (PSI 1-6); higher = more stable;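 also: 24-mer peptide tiles fused after GFP, lentivirally expressed, FACS-sorted into six equal bins by GFP/DsRed ratio, decoded by Illumina sequencing, PSI is the read-weighted mean bin number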
# CONDITION LABEL: treatment: DMSO; c terminus: a fixed tail appended
Returns one of class 1 or class 0; class 1 when protein stability index is >= 4.

Challenge: Determine whether measured protein stability index meets or exceeds 4 for LIKKYSDHLENVSKLVESGIQFMD [TRIM55]
Response given: class 0

Challenge: Then QVLFDKVCEHLNLLEKDYFGLTYR [EPB41L3] ?
Response given: class 0

Challenge: And for LMAEGLLPAVKVFLDWLRTNPDLI [SMG5] ?
Response given: class 0

Challenge: And for YVKVLHHMVKISGGPRISYPLLHE [MAGEA6] ?
Response given: class 0

Challenge: Next sequence: LEVKIRDWYQRQRPSEIKDYSPYF [KRT16]
Response given: class 0

Challenge: Would you kindly repeat that for EIELQAQHNLRYSLENTLTESEAR [KRT33B] ?
Response given: class 1

Challenge: Queued: QAVVLCSKKTFQITKQGDGVDFLS [USP39]
Response given: class 0

Challenge: Okay, and TTVGYGDMKPITVGGKIVGSLCAI [KCNA4] ?
Response given: class 0

Challenge: Now consider QRRTEASRNAADKERAAGGGAGSS [GOLPH3] .
Response given: class 1

Challenge: Record: CHLNGIVHRDLKPENLLLASKSKG [CAMK2D]
Response given: class 0

Challenge: Further, for TVGGEERVSRKPTAAMRCMCPLYD [GAN] ?
Response given: class 0

Challenge: Also need SVLMGHGVCMGLVAAACACGFTVA [OR10K2] , thanks.
Response given: class 0

Challenge: # iterate: ETLITTIDSSSSWWTNWVIPAISA [CYB5A]
Response given: class 0

Challenge: Please give the result for CQQEQLFQTRQEMTSMSAELKMRA [LRRC45] too.
Response given: class 0

Challenge: Now the same for INVGGIKYSLPWTTLDEFPLTRLG [KCNG1]
Response given: class 0

Challenge: Further, for NCGKSFSRLTALTLHQRTHTEERP [ZNF449] ?
Response given: class 0

Challenge: Here is the next sequence: AEGDSWEEEGFGSSSPVKSPAAPY [WEE1]
Response given: class 1

Challenge: Next record, please: VKRRRTASLSNQECQLYPRRSQQQ [SNURF]
Response given: class 1

Challenge: Item: AVPPTSSVPPVAGAPSVGQPGAGF [SNAP91]
Response given: class 1

Challenge: Request: VFRIFKLSRHSKGLQILGHTLRAS [KCNA4]
Response given: class 0

Challenge: Next up: GPPAPVGPPHARISQHGDPLLSNT [EMID1]
Response given: class 1

Challenge: Same question, FPGRPMGHLSKDVDENDSHEGEDQ [DLC1] this time
Response given: class 1

Challenge: Would you kindly repeat that for CPKYKFISCPTCRRETVLFTDYGL [RNF208] ?
Response given: class 0

Challenge: Consider next the sequence EQCLPSLENSKYCRFNQDPEAVDE [ATE1] in the same way.
Response given: class 1

Challenge: Please do the same for SSSSGPGHGEPDVLKDELQLYGDA [TMEM40] as well.
Response given: class 1

Challenge: Then this sequence: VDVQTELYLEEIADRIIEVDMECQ [RSPH3]
Response given: class 0

----------
Give measured protein stability index for each item. Keep answers brief.
# ASSAY NAME: protein stability index of a GFP-peptide fusion (GPS, HEK-293T) (PSI 1-6); higher = more stable
# CONDITION LABEL: treatment: DMSO; c terminus: a fixed tail appended
Please give only the number in your answer, with no unit.

Challenge: Entry under review: RTVAIWDVAEGYRKLSLKGHNDWV [WDR88] . Reported protein stability index?
Response given: 2.46

Challenge: Entry ESRQTEVVIRDIDERAMELLIDFA [KLHL20] please
Response given: 2.9

Challenge: Next entry: LPGNEEFQVVKDAVLDCLLDFLPK [TENT5D]
Response given: 2.32

Challenge: Try the sequence KFLEICKLSGFMSKLVPAIQNAHK [TPRG1]
Response given: 2.27

Challenge: Input LRSRYSVASFKFDAGEVSYLPRDF [MYORG]
Response given: 2.37

Challenge: // next record CGWPRGKDAPCYESDTDIYETVAA [DRICH1]
Response given: 3.18

Challenge: Field entry: ALKEKEKASWSSLSMDEKVELYRI [COX4I1]
Response given: 3.65

Challenge: Subsequent entry: DDGKLGATGPMGMRGFKGDRGPKG [SCARA5]
Response given: 5.02

Challenge: // query: TKLEAEIVTLRHVLAAKERRCGEL [TPD52L3]
Response given: 2.89

Challenge: Repeat with LDKQAKLSRAYDGTTYLPGIVGLN [USP39]
Response given: 3.15

Challenge: AWGFPENATAPRSPSHSPEHRRTA [ELOA2] , same question.
Response given: 5

Challenge: Try this sequence too: NRVSWWGSTLAMLQRLKEQQFVIA [ZBED1]
Response given: 2.41

Challenge: LSEPDPSHTLEERVVHWYFKLLDK [SMOC2] ?
Response given: 2.61

Challenge: Would you kindly repeat that for IIDYLEQTFLDERTPRLMPDKESM [GDAP1] ?
Response given: 2.6

Challenge: Then this sequence: LLYWGIAEDHLDGCCKRRYLQKIE [KCNG1]
Response given: 1.95

Challenge: Field entry: KKSGEKEQHISKCKKAFREGSRKS [KMT2E]
Response given: 4.23

Challenge: Field entry: EILSESVVPDVRSVVTTARMQVLK [SMARCE1]
Response given: 2.87

Challenge: Item: EALKHPWICQRSTVASMMHRQETV [CAMK2D]
Response given: 2.81

Challenge: What would you report for LTSLKDLYKSLKTLSAELVPWLNL [CEP70] ?
Response given: 3.15

Challenge: Further, for LDSVSPCPSSPKQIHLDVDNDRTT [DLC1] ?
Response given: 5.37

Challenge: Proceed to VQRLQAYTATEQEMQQQMSLGELC [TRIM14]
Response given: 4

Challenge: Same thing, different sequence: PALLFPATRGVPAKRLLDADDAAA [TRIB1]
Response given: 4.74

Challenge: Next record, please: PMPWLVLSEIFPGGIRGRAMALTS [SLC2A12]
Response given: 2.5

Challenge: Then CIVSPDRPGVQDAALIEAIQDRLS [VDR] ?
Response given: 3.55

Challenge: Then what about the sequence AGGRVFVLPCIQQIQRISLNTLTL [FLOT1] ?
Response given: 2.96

Challenge: Here is the next sequence: QAQIELRLLELMNQHDTEMKYYIV [DYRK1B]
Response given: 2.24

Challenge: # iterate: PLTSHILRAFVNSQIQGHKEMSKV [SNX8]
Response given: 2.3

----------
# ASSAY NAME: protein stability index of a GFP-peptide fusion (GPS, HEK-293T) (PSI 1-6); higher = more stable
# CONDITION LABEL: treatment: DMSO; c terminus: a fixed tail appended
Label True when protein stability index >= 3; otherwise False.

Challenge: State whether the measured protein stability index reaches 3, counting equality as reaching it, for VLYTDKTYAMGHLIQRKKVHVFGD [TNFSF13B]
Response given: False

Challenge: Entry FKYINTVISCTIFIVGMVGNATLL [EDNRA] please
Response given: True

Challenge: Further, for VNEKLPQREGTGKTVSLQIFSVLN [SMOC2] ?
Response given: False

Challenge: Same question, DEDSEPEREVRAKNGRVDSEDRRS [USP39] this time
Response given: True

Challenge: Please do the same for VAQLFNCMVGLLLIALLTWGYIRY [ATL3] as well.
Response given: True

Challenge: // repeat for RSSEFYRVTTEQYQKAAEEVEAKF [CHCHD3] and report
Response given: True

Challenge: Another sequence: LVSPERAQPPDYTFPSGSGAHFPQ [PI4K2A]
Response given: True

Challenge: Subsequent entry: RGFSGGILAFLVLEAVAGALVVAL [TSPAN10]
Response given: False

Challenge: Next sequence: VNSSIKTFFCPNDTYNDMATLFFN [CLCN6]
Response given: False

Challenge: // repeat for IDCGKAFSQKSCLVAHQRYHTGKT [ZNF649] and report
Response given: False

Challenge: Try the sequence IEEDMNNSIAHYRQVNIRTANCTT [KCNA1]
Response given: True

Challenge: Request: PNGSAAEPPTEAASREENQAGPEA [PALM]
Response given: True

Challenge: Subsequent entry: SSIGRLFGKKEKGRLIQLSRDGAT [PPFIA4]
Response given: True

Challenge: Another sequence to look at: SVPPVAGAPSVGQPGAGFGMPPAG [SNAP91]
Response given: True

Challenge: And the next one, RGCLHSHGLQEGKDLFTQRQNSAP [CDC25A] ?
Response given: True

Challenge: Then what about the sequence RPLARPIKPNEILPPEKGREVAKE [RHOBTB2] ?
Response given: True

Challenge: Next entry: MSSASGLRRGHPAGGEENMTETDA [CASP6]
Response given: True

Challenge: Here is the next sequence: PTTEPETEPEDDRGPVVPKHSTFG [GNAS]
Response given: True

Challenge: Next: GPMEEVERQVLPDPEVLEAVGDRQ [PBXIP1]
Response given: True

Challenge: Repeat with RVFRVTFLMLAVSLTVPLLGAMML [APMAP]
Response given: False

Challenge: // query: NHFDMHRVGKWHQDFPVKKRKKLS [ZNF75A]
Response given: True

Challenge: What would you report for LVDEEEKVLIQKNLGPKSKVLILR [ADD1] ?
Response given: True

Challenge: Would you mind doing RAGTEPSDAIRVVNAVLTQIDQIK [TRIP13] as well?
Response given: True

Challenge: Same lookup for DGSVVRDFEHRPKAPVVECSITGD [WDR88] , please.
Response given: True

Challenge: Would you mind doing GCFTLPRSEPIRPIDPAAWVSHTA [DVL3] as well?
Response given: False

Challenge: And ALYVQAPTVTIEGFLQALSLAVDK [TRIP13] ?
Response given: False

Challenge: Follow-up entry: LGAGGGSLLPGAVEQPQPQFISRF [NEK8]
Response given: True

Challenge: Then what about the sequence RTQEEKLEHVRALIKKYSDHLENV [TRIM55] ?
Response given: True

Challenge: Would you kindly repeat that for AIYFTAYDQLKAFLCGRALTSDLY [SLC25A39] ?
Response given: True

Challenge: Same again, this time with VIDRKVYNISEFTRRHPGGSRVIS [FADS1]
Response given: False

Challenge: Would you mind doing IPPPLSSVYAWGGGLGTPLRLPML [NEK8] as well?
Response given: False

Challenge: Also QAHELAYDPNYMSPFAQFACDNGL [PPTC7] , if possible.
Response given: True

Challenge: Another: ANLTPNVGGYFVDKFVATMYHYLQ [P3H4]
Response given: False

Challenge: Moving on to the next sequence: YEAGQVTLHNAQTQEPIFTFTASF [TRIM15]
Response given: False

Challenge: Similarly, VDRCGASVEAGGSVHFDGETIEGA [FEM1A] ?
Response given: True

Challenge: Follow-up item: DHTSEAVRNLFGLDPSSGAIHVLG [PCDHGC5]
Response given: True

Challenge: Would you kindly repeat that for YSFYLFHPLAYGMVGPLAQDPQSP [POMT2] ?
Response given: False

Challenge: // next record PLGVLQAIAMYFLPPSPRFLVMKG [SLC2A12]
Response given: False

Challenge: Would you kindly repeat that for MPVQLTSRREIRKIMGVEEEDDDD [ANKRD40] ?
Response given: True

Challenge: Query TAVHGRFTRSQTLIQNGGEIDCVD [ANKRD44] next
Response given: True

Challenge: Here is the next sequence: DYLDLDKMSLYSEADSGYGSYGGF [TRIM9]
Response given: False

Challenge: # iterate: LKLYYRRLFPYSQYYRWLNYGGVI [PRIM1]
Response given: False

Challenge: # iterate: STMRRMALRPTAFSGCLNCSKVSE [EMID1]
Response given: False

Challenge: Then ASPSSSVRLGSFRSPRAGAGALLR [PRPH] ?
Response given: True

Challenge: Another sequence to look at: ECGKAFSQSSYLSQHRRIHSGEKP [ZNF232]
Response given: True

Challenge: Now give it for HIENGPFSLEQQLDDEDDDEEDCP [SRPK2] too.
Response given: True

Challenge: And then AAARAAQRRRRVENAGGSPSPEPA [RSAD1] , what is it?
Response given: True

Challenge: // same read-out, input: AGLSLLSPSVMRLVHTQEPGEWLE [ALKBH7]
Response given: False

Challenge: Now the sequence HTLPVNRETLKRKVSGNRCASPVT [ESR2]
Response given: True

Challenge: Again, but for DSLTSLQWLQEFSILNAKAPALPP [FOXJ1]
Response given: False

Challenge: Same question, ICFCCEEFQPAKCTDKENALKLFP [FAM189A2] this time
Response given: False
